target: human 72 kDa gelatinase catalytic domain (GCD), reconstructed 19 kDa protein lacking propeptide, C-terminal domain and fibronectin-like insert, Seq ID No: 1 (Homo sapiens, UniProt P08253, DEL214-387); construct: starting at Ala at position -2 and ending at Ile at 168; made in house; host or cells: E. coli BL21(DE3)/pLysS; test: Inhibition of GCD cleavage of thiopeptolide by amino acid derivatives; format: biochemical; details: 17.3 nM GCD, 100 μM thiopeptolide, 10 mM CaCl2, 10 μM ZnCl2, MOPS pH 7.0
Sequence (P08253 with tags, fused parts or gaps DEL214-387): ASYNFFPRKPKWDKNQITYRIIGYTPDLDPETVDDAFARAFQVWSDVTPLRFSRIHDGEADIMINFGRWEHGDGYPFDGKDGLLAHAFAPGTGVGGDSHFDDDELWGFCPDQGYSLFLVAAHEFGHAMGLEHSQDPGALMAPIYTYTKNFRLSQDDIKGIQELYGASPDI
Let's look at some compounds and their measured GCD IC50.

smiles.entry: O=C(N[C@@H](Cc1ccccc1)C(=O)O)OCc1ccccc1
measured: 21 ± 1 µM
//
smiles.entry: CC(C)(C)OC(=O)N[C@@H](Cc1c[nH]c2ccccc12)C(=O)O
measured: 57 ± 4 µM
//
smiles.entry: O=C(N[C@H](Cc1ccc(O)cc1)C(=O)O)OCc1ccccc1
measured: > 500 µM
//
smiles.entry: CC(C)(C)OC(=O)N[C@H](Cc1c[nH]c2ccccc12)C(=O)O
measured: > 500 µM
//
smiles.entry: N[C@@H](Cc1c[nH]c2ccccc12)C(=O)O
measured: > 500 µM
//
smiles.entry: O=C(N[C@@H](Cc1ccc(O)cc1)C(=O)O)OCc1ccccc1
measured: 10.4 ± 0.4 µM

GCD IC50 for N[C@H](Cc1c[nH]c2ccccc12)C(=O)O ?
> 500 µM

Item O=C(N[C@H](Cc1ccccc1)C(=O)O)OCc1ccccc1 has what recorded GCD IC50?
100 to 500 µM
